# MEASUREMENT_TARGET: BRD9 (Homo sapiens, UniProt Q9H8M2)
# Sequence (Q9H8M2 1-597): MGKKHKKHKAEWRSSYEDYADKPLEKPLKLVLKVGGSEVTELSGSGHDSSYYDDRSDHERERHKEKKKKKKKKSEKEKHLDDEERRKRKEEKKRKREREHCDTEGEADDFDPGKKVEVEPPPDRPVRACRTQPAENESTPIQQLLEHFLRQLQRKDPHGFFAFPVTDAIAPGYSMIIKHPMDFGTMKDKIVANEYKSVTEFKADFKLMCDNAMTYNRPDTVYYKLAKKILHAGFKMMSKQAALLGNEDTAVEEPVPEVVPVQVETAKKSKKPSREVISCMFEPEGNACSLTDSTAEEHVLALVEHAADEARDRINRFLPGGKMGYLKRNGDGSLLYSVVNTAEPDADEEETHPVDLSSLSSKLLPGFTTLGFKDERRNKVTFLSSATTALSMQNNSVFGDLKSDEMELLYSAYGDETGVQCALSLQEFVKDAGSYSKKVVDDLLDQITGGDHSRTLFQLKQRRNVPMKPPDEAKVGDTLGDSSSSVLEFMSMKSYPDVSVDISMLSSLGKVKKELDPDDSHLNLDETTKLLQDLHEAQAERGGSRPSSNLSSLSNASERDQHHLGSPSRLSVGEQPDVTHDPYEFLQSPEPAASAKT
# PROTOCOL_TEXT: BRD9 degradation, HiBiT-BRD9 KI HEK293 (LgBiT) cells, NanoGlo Lytic Endpoint assay (Assay Protocol 1)
# Format: cell-based
# CONDITION: Table 3; assay 1; 5 h of treatment
RECORDED_ENDPOINT: DC50

These solved cases illustrate the format of a correct answer.
# COMPOUND, DC50
measured = [
    ("COc1cc(-c2cn(C)c(=O)c3cnccc23)cc(OC)c1CN1CCN(Cc2cccc3c2CCN(C(=O)/C(C#N)=C\\c2ncc(C)s2)C3C)CC1 (mixture of isomers)", "< 1.25 nM"),
    ("COc1cc(-c2cn(C)c(=O)c(C)c2C)cc(OC)c1CN1CCCN(Cc2cccc3c2CCN(C(=O)/C(C#N)=C/C(C)(C)C)C3C)CC1 (mixture of isomers)", "10 to 25 nM"),
    ("COc1cc(-c2cn(C)c(=O)c(C)c2C)cc(OC)c1CN1CCN(Cc2cccc3c2CCN(C(=O)/C(C#N)=C/c2ncc(C)s2)C3C)CC1 (mixture of isomers)", "1.25 to 10 nM"),
    ("COc1cc(-c2cc(C)c(=O)n(C)c2)cc(OC)c1CN1CCN(Cc2cccc3c2CCN(C(=O)/C(C#N)=C/c2cccc(Br)n2)C3C)CC1 (mixture of isomers)", "< 1.25 nM"),
]

The record that follows has no DC50 shown yet.
QUERY: Please give the measured DC50 for this compound: COc1cc(-c2cn(C)c(=O)c(C)c2C)cc(OC)c1CN1CCN(Cc2cccc3c2CCN(C(=O)/C(C#N)=C/c2nccs2)C3C)CC1 (mixture of isomers)
RESULT: < 1.25 nM
